Reported melting point is given for each of the following molecules.

[[record]]
molecule = "CCNC(=O)c1ccc(Oc2c(C)n(CC(=O)O)c3ccc(F)cc23)cc1 [Example 11]"
result = "220 to 222 °C"

[[record]]
molecule = "Cc1c(Oc2ccc(S(C)(=O)=O)cc2)c2cc(F)ccc2n1CC(=O)O [Example 2]"
result = "204 to 207 °C"

[[record]]
molecule = "Cc1c(Oc2ccc(C(=O)NC(C)C)cc2)c2cc(Cl)ccc2n1CC(=O)[O-].[Na+] [Example 18]"
result = "< 275 °C"

[[record]]
molecule = "Cc1c(Oc2ccc(C(=O)O)cc2)c2cc(Cl)ccc2n1CC(=O)O [Example 13]"
result = "215 to 216 °C"

[[record]]
molecule = "Cc1c(Oc2ccc(C(=O)NC(C)C)cc2)c2cc(F)ccc2n1CC(=O)O [Example 12]"
result = "218 to 219 °C"


Query string: Item COC(=O)c1ccc(Oc2c(C)n(CC(=O)O)c3ccc(Cl)cc23)cc1 [Example 15] : provide melting point
Result string: 196 to 197 °C

Query string: Item CCNC(=O)c1ccc(Oc2c(C)n(CC(=O)O)c3ccc(Cl)cc23)cc1 [Example 17] : provide melting point
Result string: 220 °C (dec.)

Query string: Item CNC(=O)c1ccc(Oc2c(C)n(CC(=O)O)c3ccc(Cl)cc23)cc1 [Example 16] : provide melting point
Result string: 225 °C (dec.)

Query string: Item COC(=O)c1ccc(Oc2c(C)n(CC(=O)O)c3ccc(F)cc23)cc1 [Example 14] : provide melting point
Result string: 195 to 196 °C

Query string: Item CNC(=O)c1ccc(Oc2c(C)n(CC(=O)O)c3ccc(F)cc23)cc1 [Example 10] : provide melting point
Result string: 217 to 218 °C
